Binary call on logP: 1 from 0.6 upward, -1 beneath that.

Examples with answers:
| ITEM SMILES | DISCRETE LABEL |
| --- | --- |
| Clc1ccc(N=C2NCCN2)c(Cl)c1 | 1 |
| CCC(=O)c1ccc(OC(=O)NC)cc1 | 1 |
| CNC(=S)NCCSCc1nc[nH]c1C | -1 |
| CN1C(=O)CN=C(c2c(Cl)cccc2Cl)c2cc(Cl)ccc21 | 1 |

Query :: Is reported logP greater than or equal to 0.6 here: Cc1cccc2c([N+](=O)[O-])cc[n+]([O-])c12
Result :: 1

Query :: Identify whether the reported logP of the following molecule is 0.6 or greater: COc1cc(Cc2cnc(N)nc2N)cc(OC)c1C(=O)N(C)C
Result :: -1

----------
Criterion: logP strictly less than 2. Met: satisfied. Not met: not satisfied.

Before answering, review these 2 worked examples.
| COMPOUND | DISCRETE LABEL |
| --- | --- |
| CNC(=O)C(NC(C)=O)C(C)C (centres undefined) | satisfied |
| O=C1CN=C(c2ccccc2Br)c2cc(Br)ccc2N1 | not satisfied |

Query :: Please state whether logP is below 2 for CCOc1c(OC)cc(Cc2cnc(N)nc2N)cc1OC
Result :: satisfied

Query :: Item CCC1(CC2COc3ccccc3O2)C(=O)NC(=O)NC1=O (centres undefined) : logP beneath 2, strictly?
Result :: satisfied

Query :: Is logP of COc1cccc(N2C(=O)CCC2=O)c1 strictly below 2?
Result :: satisfied

Query :: Is the reported logP for CCCCC(=O)NN strictly below 2?
Result :: satisfied

Query :: Report whether reported logP is lower than 2 (strictly) for O=NN(CCCl)C(=O)NC12CC3CC(CC(C3)C1)C2
Result :: not satisfied

Query :: Consider Cc1cc(C)c(NC2=NCCN2)c(Cl)c1 . Does its logP lie strictly below 2?
Result :: not satisfied

Query :: Determine whether this compound shows logP lower than 2 (ties excluded): FC(F)(F)c1nc2ncccc2[nH]1
Result :: satisfied

Query :: # check: logP < 2 for CSc1nnc(C)c(=O)n1N
Result :: satisfied

----------
Would you mind telling me the reported logP of each entry?

Recorded results for 7 compounds are shown here.
| COMPOUND | logP |
| --- | --- |
| CC1CNC(=Nc2ncc([N+](=O)[O-])s2)N1 (stereo not drawn) | 1.82 |
| CC(C)CNC(=O)NN | -0.84 |
| O=C(c1ccncc1)c1ccccc1O | 2.13 |
| CN(N=O)C(=O)Oc1cccc2ccccc12 | 2.85 |
| O=S(=O)(Nc1cccc(F)c1)C(F)(F)F | 3.42 |
| CC(C)c1ccc(C(O)C(CO)NC(=O)C(Cl)Cl)cc1 (stereo not drawn) | 2.24 |
| COc1cc(C)ccc1N=C1NCCN1 | 1.64 |

Now look at this one.
Query :: Returns the measured logP for the input compound. Input: COc1cc(OC)c(OC)cc1CC(C)N (stereo not drawn)
Result :: 1.74

----------
MEASURE: logP
Numbers only.

| COMPOUND | logP |
| --- | --- |
| O=c1ccnc2ccccn12 | 0.2 |

Count: 2. Required value per item: logP.
1. CCCCCCc1nnc(SC)n(N)c1=O
2. COc1cc(CC(=O)O)ccc1OCc1ccccc1

Result ::
2.68
2.59

Please report logP for every entry that follows.
1. CNC(=O)Oc1ccc(C(C)(C)C)c(C)c1
2. CCNP(=O)(OC)SC (stereo not given)
3. O=S(=O)(Nc1cccc(O)c1)C(F)(F)F

Result ::
1. 3.38
2. 0.07
3. 2.51

Batch lookup, logP per entry.
1. CCNCNC(=O)c1ccccc1
2. CCCCCCN(SN(C)C(=O)ON=C(C)SC)C(=O)N(C)C
3. COc1ccc(Cc2cnc(N)nc2N)c(OC)n1
4. CC1CCCN(N=O)C1 (stereo not given)
5. CN(C)c1cccc(C(N)=O)c1
6. COc1cccc(Cc2cnc(N)nc2N)c1
7. OCCCCCn1nnc2ccccc21
8. CC(=O)Nc1cc2c(cc1Cl)S(=O)(=O)NC(C)=N2

Result ::
1: 0.56; 2: 3.3; 3: 2.01; 4: 0.99; 5: 0.95; 6: 1.54; 7: 1.51; 8: 0.53

----------
Kindly state logP for each of the entries shown.
One number for each entry.

| MOLECULE | logP |
| --- | --- |
| Cc1csc(C=Cc2ccc([N+](=O)[O-])o2)n1 | 1.53 |
| COc1c(O)cc(Cc2cnc(N)nc2N)cc1O | -0.04 |
| c1ccc(Sc2nnc[nH]2)cc1 | 1.45 |
| CN1C(=O)CN=C(c2ccccc2F)c2cc(N)ccc21 | 1.3 |
| COc1ccc(Cc2cnc(N)nc2N)cc1O | 0.74 |

// each listed molecule needs a value for logP
1. COCCOc1c(OC)cc(Cc2cnc(N)nc2N)cc1OC
2. COP(=O)(NCC(C)C)Oc1cc(Cl)c(Cl)cc1Cl (stereo unspecified)
3. O=C(c1ccncc1)c1ccc(O)cc1
4. CCCCSc1ccccc1OC(=O)NC
5. CCCCCn1nnc2ccccc21
6. Cc1cc([N+](=O)[O-])c2ccccc2[n+]1[O-]
7. CCC(=O)N(C)SN(C)C(=O)Oc1cccc2c1OC(C)(C)C2

Result ::
1. 0.56
2. 3.86
3. 1.37
4. 2.98
5. 3.22
6. 1.25
7. 3.2

Quick one: give me logP for each item below, same order please.
1. CCOC(=O)CCCN1C(=O)C=CC1=O
2. CCOC(=O)CCCCn1nnc2ccccc21
3. O=NN(CCCl)C(=O)NC1C=CCCC1 (stereo unspecified)
4. COc1cc(Cc2cnc(N)nc2N)ccc1N
5. CN(N=Nc1ccc(C(N)=O)cc1)C(C)(C)C
6. CC1COCCN1N=O (stereo unspecified)
7. Nc1nc(=O)c2ccccc2[nH]1

Result ::
0.67
2.2
2.45
0.49
2.61
-0.03
0.6

Batch lookup, logP per entry.
1. O=C(CN1CCCCC1)Nc1ccc([N+](=O)[O-])cc1
2. O=C1CN=C(c2ccccc2)c2ccccc2N1
3. CC(=O)Nc1c(C)c(C)c(O)c(C)c1C
4. COc1ccc(Cc2cnc(N)nc2N)cc1Nc1ccccc1
5. CC1CCN(N=O)CC1
6. COc1cc(Cc2cnc(N)nc2N)cc(OC)c1Br
7. CC(=O)N(CC(O)CO)c1c(I)c(C(=O)NCC(O)CO)c(I)c(C(=O)NCC(O)CO)c1I (stereo unspecified)

Result ::
[2.72, 2.18, 0.95, 2.88, 1.05, 2.01, -3.05]

----------
Please go through the items and note down their logP.
Give bare numbers.

// for each molecule below, give its logP
1. Cc1cccc(C)c1C(=N)c1ccccc1
2. CCCNP(=O)(OC)SC (stereo unspecified)
3. CO[C@@]12[C@@H]3N[C@@H]3CN1C1=C(C(=O)C(Nc3nc(C)c(C)s3)=C(C)C1=O)[C@@H]2COC(N)=O
4. COc1cc(S(=O)(=O)CCC(C)C)cc(OC)c1OC
5. O=C(c1ccccc1)c1ccc(N=C=S)cc1

Result ::
3.53
0.65
1.29
2.12
4.88

# per-item lookup of logP; items listed below
1. Nc1ncnc2nc(-c3cccc([N+](=O)[O-])c3)[nH]c12
2. CCC1(CC)OC(=O)c2ccccc21
3. CC(C)C(=O)N(C)SN(C)C(=O)Oc1cccc2c1OC(C)(C)C2
4. C[N+](C)(C)Cc1cccc(C(N)=O)c1.[Br-]
5. O=C(O)COc1ccc(C2CCCC2)cc1
6. COc1cc(-n2c(=O)cc(C)n2C)ncn1
7. CN(C)c1ccc(C(N)=O)cc1

Result ::
1.93
2.69
3.6
-2.8
3.41
0.3
1.14

Hey, quick one: what's logP for each of these?
1. O=C(CNC(=O)c1ccccc1)Oc1cccc(F)c1
2. NN=C1c2ccccc2C(=O)C1C(=O)C(c1ccccc1)c1ccccc1 (stereo unspecified)
3. CN(C)C(=O)COc1ccccc1
4. CCOC(=O)C(C#N)=NNc1cc(Cl)cc(Cl)c1
5. O=NN(CCCl)C(=O)NCCCCNC(=O)N(CCCl)N=O
6. ClC1C(Cl)C(Cl)C(I)C(Cl)C1Cl (stereo unspecified)
7. COc1cccc(C2=NCC(=O)Nc3ccc(Cl)cc32)c1

Result ::
2.58
3.62
0.8
3.82
0.9
4.05
3.14

Hi there! I need logP for each item below, if you can.
1. CC(=O)NNC(=O)c1ccccc1N=NN(C)C
2. COc1cc(Cc2cnc(N)nc2N)ccc1C(C)(C)O

Result ::
1.18
1.38

Respectfully, I request logP for each entry included below.
1. CCOC(=O)CN(C(=O)CCl)c1ccccc1CC
2. O=C(O)c1ccccc1Nc1cccc([N+](=O)[O-])c1
3. CC(C)OCC(O)Cn1ccnc1[N+](=O)[O-] (stereo unspecified)
4. CCOC(=O)C(=Cc1ccc(OC)cc1)C(=O)OCC
5. O=S(=O)(Nc1ccc(C(F)(F)F)cc1)C(F)(F)F

Result ::
1: 2.57; 2: 4.57; 3: 0.51; 4: 3.28; 5: 4.47
